Attribution: paper PMC7995890

Test target: PDE5A (Homo sapiens, UniProt O76074)
Test details: PDE-Glo assay with purified recombinant human PDE5A; supported by cellular thermal shift assay in HEK293T lysate
pIC50: −log10 of the molar value.
Metric name: pIC50

1) COc1ccc(-c2oc3c(CC=C(C)C)c(OCc4ccccc4)cc(O)c3c(=O)c2O)cc1 [compound 14, 7-O-benzylicaritin]	5.00
